Each recorded value in this set is attributed to patent US20250145589A1.

Test system: MIA PaCa-2 cells (KRAS G12C mutant)
METHOD NOTES: MIA PaCa-2 cell anti-proliferation (CellTiter-Glo)
Type: cell-based
CONDITION SUMMARY: Homo sapiens, 72 h; MIA Paca-2 cells, 3 days, Table 7; read-out: MIA PaCa-2 (IC50)
# Lookup of reported pIC50 keyed by entry
Notebook: values listed as pIC50 are -log10 of the concentration (mol/L).

Past entries and their recorded results:
COc1ncc(-c2ccc3ncnc(N4CCN(C(=O)/C=C/C(C)=O)CC4)c3n2)cc1NS(=O)(=O)c1sc(C)nc1C = 7.54
COc1ncc(-c2ccc3ncnc(N4CCC5(CN(C(=O)/C=C/C(C)=O)C5)C4)c3c2)cc1NS(=O)(=O)c1c(F)cc(F)cc1F = 6.96
CC(=O)/C=C/C(=O)N1CCN(c2ncnc3ccc(-c4cnc(C(F)(F)F)c(NS(=O)(=O)c5ccc(F)cc5F)c4)cc23)CC1 = 6.08
COc1ncc(-c2ccc3ncnc(N4CCN(C(=O)/C=C/C(C)=O)C[C@@H]4C)c3c2)cc1NS(=O)(=O)c1c(F)cccc1F = 7.04
COc1ncc(-c2ccc3ncnc(C4CCN(C(=O)/C=C/C(C)=O)CC4)c3n2)cc1NS(=O)(=O)c1c(F)cc(F)cc1F = 7.88

Challenge: # returns recorded pIC50 (system: MIA PaCa-2 cells (KRAS G12C mutant)) for COc1ncc(-c2ccc3ncnc(N4CC5CCC4CN5C(=O)/C=C/C(C)=O)c3c2)cc1NS(=O)(=O)c1ccc(F)cc1F (stereo not shown)
Response given: 6.85

Challenge: # returns recorded pIC50 (system: MIA PaCa-2 cells (KRAS G12C mutant)) for COc1ncc(-c2ccc3ncnc(C4CCN(C(=O)/C=C/C(C)=O)CC4)c3n2)cc1NS(=O)(=O)c1c(F)cccc1F
Response given: 7.85
